src = the supplement of paper PMC13380429

Hi there, I'd appreciate the recorded cell viability for every entry that follows.
- System: Vero E6
- PROTOCOL TEXT: cell viability relative to DMSO; higher = less toxic
- MEASUREMENT PARAMETERS: 72 h; 10 nM

# cell viability (compound: COc1ccc(-c2nc3cc(C4=NNC(=O)CC4C)ccc3[nH]2)cc1 (configuration not stated) ) is 110%

Sure, the documented cell viability for "Cc1cc(Nc2cc(C)c(C#N)c(N[C@@H](C)CCCC(C)(C)O)n2)n[nH]1" is 104%

The compound "CCCCCOc1ccc(-c2cc(-c3ccc(C(=O)N[C@H]4C[C@@H](O)[C@@H](O)NC(=O)[C@@H]5[C@@H](O)[C@@H](C)CN5C(=O)[C@H]([C@H](O)CC(N)=O)NC(=O)[C@H]([C@H](O)[C@@H](O)c5ccc(O)c(OS(=O)(=O)O)c5)NC(=O)[C@@H]5C[C@@H](O)CN5C(=O)[C@H]([C@@H](C)O)NC4=O)cc3)no2)cc1" showed cell viability equal to 101%

// recorded cell viability for "NC(=S)N/N=C/c1ccncc1" : 98.9%

For this compound ( CCCCc1ccc(C(N)=O)nc1 [bupicomide] ), measured cell viability is 99.9%

cell viability for "C[C@H]1NC(=O)NC1=O" is 102%

For record Oc1cc2c(cc1O)[C@H]1c3ccccc3CN[C@@H]1CC2 (racemic) [dihydrexidine] the listed cell viability is 96.7%

---

- Tested on: U2OS
- PROTOCOL TEXT: cell viability relative to DMSO; higher = less toxic
- MEASUREMENT PARAMETERS: 72 h; 1 nM
MEASUREMENT TYPE: cell viability (%)
The reply should be a number in %, with the unit left off.

Recorded cell viability (molecule "C[C@H](N)Cc1cccc(O)c1" ): 88

Per the records, this molecule ( "CCOc1nc2cccc(C(=O)O)c2n1Cc1ccc(-c2ccccc2-c2nnn[nH]2)cc1" ) has cell viability equal to 94.2

Query "CC(C)NC[C@@H](C(=O)N1CCN(c2ncnc3c2[C@H](C)C[C@H]3O)CC1)c1ccc(Cl)cc1" yields cell viability of 105

The reported value for O=C(O)CNC(=O)C(CS)Cc1ccccc1 (stereo not given) in terms of cell viability is 99.4

"COC(=O)c1cc2c(C(F)(F)F)cc(-c3ccccc3)cc2n1O" has a reported cell viability of 103

---

- Tested on: Vero E6
- PROTOCOL TEXT: drug sensitivity score (DSS) for viability; higher = more toxic; extreme values may be limits of the assay
- MEASUREMENT PARAMETERS: 72 h
Kindly supply the reported drug sensitivity score values for the records listed here.
Simply state the number, no unit and no words.

Kindly note the recorded drug sensitivity score for O=C(NCCCNc1nc(Nc2cccc(NC(=O)N3CCCC3)c2)ncc1I)c1cccs1 [BX-795] , which is 1.8

Input CC(=O)NO [acetohydroxamic-acid] . Output drug sensitivity score: 0

The measured drug sensitivity score associated with CC(=O)O[C@H]1CC[C@@]2(C)C(=CC[C@@H]3[C@@H]2CC[C@]2(C)C(=O)CC[C@@H]32)C1 [prasterone-acetate] reads 0

The measured drug sensitivity score associated with C[C@H](Nc1ncnc2[nH]cnc12)c1cc2ccc(F)cc2nc1-c1ccccn1 [AMG319] reads 0.75

Entry O.O=[Si]=O.O=[Si]=O.O=[Si]=O.O=[Si]=O.[O]=[Mg].[O]=[Mg].[O]=[Mg] [Talc] ; drug sensitivity score = 0

// drug sensitivity score lookup, molecule = C#CCN1C(C)=C(C(=O)OC)C(c2cccc([N+](=O)[O-])c2)C(C(=O)OCC)=C1C (stereo unspecified) [MRS-1845] , result: 0

Short answer for CC(=O)O[C@]1(C(C)=O)CC[C@H]2[C@@H]3C[C@H](C)C4=CC(=O)CC[C@]4(C)[C@H]3CC[C@@]21C [medroxyprogesterone-acetate] : drug sensitivity score was 0

# drug sensitivity score of "O=C(O)CCc1c(C(=O)O)[nH]c2cc(Cl)cc(Cl)c12" = 0

Entry C=C1CC[C@H](O)C/C1=C/C=C1\CCC[C@]2(C)[C@@H]([C@H](C)/C=C/[C@H](C)C(C)C)CC[C@@H]12 [ergocalciferol] , drug sensitivity score reported as 0

Form: molecule = O[C@H]1[C@H](O)[C@@H](O)CN2CC[C@H](O)[C@H]12 [castanospermine] ; drug sensitivity score = 0

response.value for CO[C@H]1/C=C/O[C@@]2(C)Oc3c(C)c(O)c4c(O)c(c(/C=N/N5CCN(C)CC5)c(O)c4c3C2=O)NC(=O)/C(C)=C\C=C\[C@H](C)[C@H](O)[C@@H](C)[C@@H](O)[C@@H](C)[C@H](OC(C)=O)[C@@H]1C [rifampin] (field: drug sensitivity score) = 1.2

Consider Oc1ccc(Cl)cc1 [parachlorophenol] . Its measured drug sensitivity score is 0

For this molecule ( Fc1ccc(CNc2ncnc3ccc(F)cc23)cc1 [spautin-1] ), measured drug sensitivity score is 0.1

Query Cc1c(NC(=O)c2cc3c(s2)CCCC3)cccc1-c1cn(C)c(=O)c(Nc2ccc(C3C(=O)N(C)CCN3C)cc2)n1 (stereo in doubt) [GDC-0834] yields drug sensitivity score of 0

drug sensitivity score in this record for Oc1cc(O)c2c(c1)O[C@H](c1ccc(O)c(O)c1)[C@@H](O)C2 [cianidanol] : 0

Please fill in: drug sensitivity score reported for CCO[C@H]1O[C@@H]2O[C@@]3(C)CC[C@H]4[C@H](C)CC[C@@H]([C@H]1C)[C@@]24OO3 [artemotil] = 0

Noted for O=C1NCCN1CCN1CCC(c2cn(-c3ccc(F)cc3)c3ccc(Cl)cc23)CC1 [sertindole] : its drug sensitivity score reads 3.3

Per the record, CSC[C@H](N)C(=O)O [S-methylcysteine] has drug sensitivity score of 0

response.value for NC(=O)OCC(O)COc1ccc(Cl)cc1 (stereo unspecified) [chlorphensin-carbamate] (field: drug sensitivity score) = 0

The recorded drug sensitivity score for CN(C)C[C@H](O)Cn1c2ccc(Br)cc2c2cc(Br)ccc21 (racemic) [wiskostatin] is 2.7

Input COc1cc(C[C@H]2c3cc(OC)c(OC)cc3CCN2C)c(Oc2cc3c(cc2OC)-c2c(OC)c(OC)cc4c2[C@H](C3)N(C)CC4)cc1OC [thaliblastine] . Output drug sensitivity score: 0

---

- Test system: Caco-2
- PROTOCOL TEXT: cell viability relative to DMSO; higher = less toxic
- MEASUREMENT PARAMETERS: 72 h; 1 nM
MEASUREMENT TYPE: cell viability (%)
Reply with just the number (in %).

// cell viability value for "Cc1ccc(NC(=O)c2cccc(C(C)(C)C#N)c2)cc1Nc1ccc2ncn(C)c(=O)c2c1" : 95.8

Reported cell viability for "CN1CC(=O)NC1=N" was 95.8

Record "Nc1ncnc2c1c(-c1ccc(Oc3ccccc3)cc1)nn2C1CCCC1" . Reported cell viability: 109

Looking up "Oc1c(Br)cc(Br)c2cccnc12" , I found its cell viability recorded as 89.4

Entry "CCCN(CCC)S(=O)(=O)c1ccc(C(=O)O)cc1" , cell viability reported as 95.8

cell viability reported for this compound OC[C@@H](O)[C@@H](O[C@@H]1O[C@H](CO)[C@H](O)[C@H](O)[C@H]1O)[C@H](O)[C@@H](O)CO [D-LACTITOL MONOHYDRATE] : 92.3

response.value for "CN1CCN(CCCN2c3ccccc3Sc3ccc(C(F)(F)F)cc32)CC1" (field: cell viability) = 92

---

- Tested on: Vero E6
- PROTOCOL TEXT: cell viability relative to DMSO; higher = less toxic
- MEASUREMENT PARAMETERS: 72 h; 100 nM
MEASUREMENT TYPE: cell viability (%)
Numbers only; they are read as %.

Lookup result for CC(C(=O)O)c1ccc2c(c1)Cc1ccccc1-2 (stereo unspecified) ; measured cell viability: 101

What the record says about "c1ccc(C(O[C@@H]2CCCN(CCc3ccc4c(c3)OCO4)C2)c2ccccc2)cc1" : cell viability is 96.7

So for "NC(=O)c1ncn([C@@H]2O[C@H](CO)[C@@H](O)[C@H]2O)c1O" , the logged cell viability turned out to be 99.1

Field cell viability (entry "CC/C=C(\C(=O)N[C@@H]1C(=O)N2C(C(=O)OCOC(=O)C(C)(C)C)=C(COC(N)=O)CS[C@H]12)c1csc(N)n1" ) reads 110

Entry "Cn1c(=O)cc(N2CCC[C@@H](N)C2)n(Cc2cc(F)ccc2C#N)c1=O" ; cell viability = 99.2

Notebook: "O=C1C[C@@H]2OCC=C3CN4CC[C@]56c7ccccc7N1[C@H]5[C@H]2[C@H]3C[C@H]46" , cell viability read as 98.3

Reported cell viability for "Cc1cc(C)c(/C=C2\C(=O)Nc3ccccc32)[nH]1" was 98.7

Recorded result, "CCCc1ncc(C[n+]2ccccc2C)c(N)n1" , cell viability: 92.8

Notebook: CC(C(=O)O)c1ccc(CC2CCCC2=O)cc1 (stereo unspecified) , cell viability read as 98.4

Query "N#Cc1c(O)c2c(-c3ccc(-c4ccccc4O)cc3)csc2[nH]c1=O" yields cell viability of 97.3

Record summary for "NC(=O)N/N=C/c1ccc(Oc2ccc(F)cc2)cc1" : reported cell viability = 104

Reported cell viability ( "CCCCCOc1ccc(-c2cc(-c3ccc(C(=O)N[C@H]4C[C@@H](O)[C@@H](O)NC(=O)[C@@H]5[C@@H](O)[C@@H](C)CN5C(=O)[C@H]([C@H](O)CC(N)=O)NC(=O)[C@H]([C@H](O)[C@@H](O)c5ccc(O)c(OS(=O)(=O)O)c5)NC(=O)[C@@H]5C[C@@H](O)CN5C(=O)[C@H]([C@@H](C)O)NC4=O)cc3)no2)cc1" ) = 106

Entry "C=CCNc1nc(NCC=C)nc(N2CCN(C(c3ccc(F)cc3)c3ccc(F)cc3)CC2)n1" , cell viability reported as 89.2

Lab book: cell viability of "C[C@H]1[C@H](C)CC[C@]2(C(=O)O)CC[C@]3(C)C(=CC[C@@H]4[C@@]5(C)C[C@@H](O)[C@H](O)C(C)(C)[C@@H]5CC[C@]43C)[C@H]12" noted as 99.7

What the record says about OC[C@H]1O[C@@H](O[C@@H]2[C@@H](CO)OC(O)(CO)[C@H]2O)[C@H](O)[C@@H](O)[C@H]1O (mixture of isomers) : cell viability is 89.1

cell viability in this record for "O=c1c(O)c(-c2ccc(O)c(O)c2)oc2cc(O)cc(O)c12" : 95.9

Entry "CCN[C@@H](C)Cc1cccc(C(F)(F)F)c1" ; cell viability = 100

According to the records, this molecule "Nc1cccc(CNC(=O)c2ccc(Oc3ccc(OCc4cccc(F)c4)cc3)nc2)c1" displays cell viability of 98.8

Lookup result for "CN1c2cc3c(cc2N=C(c2ccc(C(=O)O)cc2)c2ccccc21)C(C)(C)CCC3(C)C" ; measured cell viability: 98.2

The molecule listed as "N=C(N)SCc1ccc(B(O)O)cc1" shows cell viability equal to 97.9

The molecule listed as "C[C@H]1C[C@@H]2[C@H]([C@@H](O)C[C@@]3(C)[C@H]2CC[C@]3(O)C(=O)CO)[C@@]2(C)C=CC(=O)C=C12" shows cell viability equal to 96.6
